- Tested on: rabbit vWF domain A1 binding to lyophilized platelets
- Sequence (as listed by the source): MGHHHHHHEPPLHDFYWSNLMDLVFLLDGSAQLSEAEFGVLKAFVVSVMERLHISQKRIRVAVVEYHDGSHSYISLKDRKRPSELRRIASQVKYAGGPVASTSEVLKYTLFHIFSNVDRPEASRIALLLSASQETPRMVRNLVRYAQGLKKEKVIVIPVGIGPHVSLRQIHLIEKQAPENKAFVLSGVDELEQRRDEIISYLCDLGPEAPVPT
- assay_info: Rabbit von Willebrand Factor domain A1 platelet binding assay (FACS)
- Type: cell-based
- condition_summary: 4 nM rabbit A1 vWF, lyophilized platelets, botrocetin; units in the cell: lower bound pM, upper bound nM; read-out: Inhibition of rabbit VWF A1 domain binding in FACS assay, IC50 range
- Method: Botrocetin induces the binding of the A1 domain of vWF to platelets, as well as the full length protein. It was determined by the inventors that 6-Histidine-tagged rabbit A1 domain vWF purified protein could be induced to bind to human lyophilized platelets with botrocetin. Rabbit A1 binding to platelets is measured with an anti-poly-His antibody followed by incubation with a phycoerythrin conjugated secondary antibody. The degree of binding can be quantified by flow cytometric analysis. […]
[invdT] = inverted (3'-3') thymidine
readout_name: IC50

substance="GGCGTGCAGTGCCTATTCTAGGCCGTGCGGTGCCTCCGTCACGCC-3T (DNA, [invdT] at 3' end, backbone not given here) [ARC 1027, minimized DNA aptamer]" readout_name=IC50 result="462 to 4200 pM"

Now consider a different substance.
Incoming: Could you share which IC50 value was measured for dGCGTGCAGTGCCT-[PEG]-AGGCCGTGCGGTGCCTCCGTCACGCC-3T (DNA GCGTGCAGTGCCTAGGCCGTGCGGTGCCTCCGTCACGCCT; chemistry not fully specified) [ARC1028, minimized DNA aptamer] ?
Outgoing: 526 to 2700 pM

Reference for the values: patent US7998940B2
